Where do the numbers come from? From patent US20100081679A1.

assay: logP determination via retention times, calibrated with unbranched alkan-2-ones; format: physicochemical; settings: HPLC on reversed-phase C18, method *: 40° C., 0.1% aqueous formic acid and acetonitrile, linear gradient 10% to 95% acetonitrile
Marks after values point to notes of the source that are not given here.
assay readout: logP

Check out these entries, answers already filled in.
compound | measured value
CCC(=O)c1cc(Nc2ncc(Br)c(NC3CC3)n2)ccc1O [compound 760] | 2.06*
CC(C)c1ccc(Nc2ncc(Cl)c(NC3CC3)n2)cc1 [compound 729] | 2.54*
Clc1cnc(Nc2ccccc2Sc2ccccc2)nc1NC1CC1 [compound 884] | 3.94*

Prompt line: Using known records, supply logP for Clc1cc(Cl)cc(Nc2ncc(Cl)c(NCC3CC3)n2)c1 [compound 690]
Response line: 4.3*

Prompt line: Using known records, supply logP for CC(C)Sc1cccc(Nc2ncc(Br)c(NC3CC3)n2)c1 [compound 707]
Response line: 3.38*
